Value source: patent US8541442B2

Record form. Attribute: % T/C day 10. Fill in for each entry.
Test system: human U87 glioma tumor
Experiment: In vivo anti tumour effects, U87 glioma xenograft
Settings: U87 xenograft in NMRI Nude mice, 20 mg/kg p.o. QD for 5 days, day 10 after start dosing; 20 mg/kg
Lab book: enter the figure in %, no units written.

Return reported % T/C day 10; argument: COC1CCc2c(Nc3ccc(NCCc4c[nH]c5c(C(C)(C)O)cccc45)cc3)ccnc21 (single isomer, unassigned) [Compound 25]
−3

Return reported % T/C day 10; argument: COC1CCc2c(Nc3ccc(NCCc4c[nH]c5c(C(C)(C)O)cccc45)c(C)c3)ccnc21 (single isomer, unassigned) [Compound 29]
−13

Return reported % T/C day 10; argument: Cc1cc(Nc2ccnc3c2CCC3O)ccc1NCCc1c[nH]c2c(C(C)O)cccc12 (single isomer, unassigned) [Compound 12]
71

Return reported % T/C day 10; argument: Cc1cc(Nc2ccnc3c2CCC3(C)O)ccc1NCCc1c[nH]c2c(C(C)(C)O)cccc12 (single isomer, unassigned) [Compound 27]
22

Return reported % T/C day 10; argument: CC(C)(O)c1cccc2c(CCNc3ccc(Nc4ccnc5c4CCC5(C)O)cc3)c[nH]c12 (single isomer, unassigned) [Compound 31]
1

Return reported % T/C day 10; argument: Cc1cc(Nc2ccnc3c2CCC3O)ccc1NCCc1c[nH]c2c(C(C)O)cccc12 (single isomer, unassigned) [Compound 15]
88

Return reported % T/C day 10; argument: COC1CCc2c(Nc3ccc(NCCc4c[nH]c5c(C(C)(C)O)cccc45)c(C)c3)ccnc21 (single isomer, unassigned) [Compound 28]
−10

Return reported % T/C day 10; argument: Cc1cc(Nc2ccnc3c2CCC3(C)O)ccc1NCCc1c[nH]c2c(C(C)(C)O)cccc12 (single isomer, unassigned) [Compound 26]
−11

Return reported % T/C day 10; argument: CC(C)(O)c1cccc2c(CCNc3ccc(Nc4ccnc5c4CCC5(C)O)cc3)c[nH]c12 (single isomer, unassigned) [Compound 30]
−10

Return reported % T/C day 10; argument: COC1CCc2c(Nc3ccc(NCCc4c[nH]c5c(C(C)(C)O)cccc45)cc3)ccnc21 (single isomer, unassigned) [Compound 24]
1
